Experiment: Toxicity liver stage against HepG2, at 10uM
Type: cell-based
Parameters: test concentration 10 uM, cell line HepG2-A16-CD81EGFP
Conditions: human, HepG2-A16-CD81EGFP cells; read-out: INHIBITION
attribute measured: cytotoxicity at 10 µM (%)
Respond numerically; units are % and should not be typed.

Query block: GET /values?readout=cytotoxicity at 10 µM&item= "COC(=O)C(C)(C)S(=O)(=O)c1ccc(Br)cc1"
Result block: 5.25

Query block: GET /values?readout=cytotoxicity at 10 µM&item= "c1cc(CN2CCCN(c3ccc4cc[nH]c4n3)CC2)ccn1"
Result block: -9.98

Query block: GET /values?readout=cytotoxicity at 10 µM&item= "O=C(Nc1cnn(CCN2CCOCC2)c1)c1ccccc1O"
Result block: -3.38

Query block: GET /values?readout=cytotoxicity at 10 µM&item= "Cc1nn(C)c(C)c1CCC(=O)N1CC(c2cccnc2)C1"
Result block: -4.84

Query block: GET /values?readout=cytotoxicity at 10 µM&item= "c1cnc(N2C[C@H]3CCC[C@@H](CN4CCCC4)[C@H]3C2)nc1"
Result block: -4.22

* * *

Assay: Toxicity liver stage against HepG2, at 10uM
Format: cell-based
Design: test concentration 10 uM, cell line HepG2-A16-CD81EGFP
Settings: human, HepG2-A16-CD81EGFP cells; read-out: INHIBITION
attribute measured: cytotoxicity at 10 µM (%)
Respond numerically; units are % and should not be typed.

Query block: GET /values?readout=cytotoxicity at 10 µM&item= Cc1ccc(-c2n[nH]cc2CNCC2CCN(CC(F)(F)F)C2)o1 (stereo unspecified)
Result block: 6.99

Query block: GET /values?readout=cytotoxicity at 10 µM&item= "CCOC(=O)[C@]12CCCN(Cc3nccs3)C[C@H]1CN(C(C)C)C2"
Result block: -8.81

Query block: GET /values?readout=cytotoxicity at 10 µM&item= "Cc1ncsc1CCN(C)C(=O)CN1CCCCCC1=O"
Result block: -7.67

Query block: GET /values?readout=cytotoxicity at 10 µM&item= "COc1cccc2sc(OC3CN(C(=O)C4=COCCO4)C3)nc12"
Result block: 4.91

Query block: GET /values?readout=cytotoxicity at 10 µM&item= Cc1cc(C)c2c(NC(C)c3nncn3C3CCCC3)ncnc2n1 (stereo unspecified)
Result block: 5.01

Query block: GET /values?readout=cytotoxicity at 10 µM&item= "CNC(=O)NC(=O)CCSCc1cc(F)cc2cccnc12"
Result block: -5.31

Query block: GET /values?readout=cytotoxicity at 10 µM&item= CC(NCc1cnc(C2CCC2)s1)c1cccc(-n2cccn2)c1 (stereo unspecified)
Result block: 2.34

Query block: GET /values?readout=cytotoxicity at 10 µM&item= Cc1nc(CN2CC3(CCN(c4ncc(F)cn4)C3)CC2=O)cs1 (stereo unspecified)
Result block: 3.25

Query block: GET /values?readout=cytotoxicity at 10 µM&item= "COc1ccc(Cl)cc1NCC(=O)NCCNc1cnccn1"
Result block: -11.4

Query block: GET /values?readout=cytotoxicity at 10 µM&item= "O=C(NCCc1ccccc1)N1CC[C@@H]2CNS(=O)(=O)[C@@H]2CC1"
Result block: -5.12

Query block: GET /values?readout=cytotoxicity at 10 µM&item= CS(=O)(=O)NCC1CCCN(C(=O)COCC(F)(F)F)C1 (stereo unspecified)
Result block: -3.12

Query block: GET /values?readout=cytotoxicity at 10 µM&item= "NC(=O)c1cnc(-c2ccccc2)nc1CCNC(=O)CN1CCCC1"
Result block: -1.25

Query block: GET /values?readout=cytotoxicity at 10 µM&item= "CCN1CCN(Cc2nc(Cc3ccccc3)n[nH]2)CC1"
Result block: -9.34

Query block: GET /values?readout=cytotoxicity at 10 µM&item= CCc1n[nH]c(C2CN(C(=O)c3ncoc3CC)CCO2)n1 (stereo unspecified)
Result block: 0.567

Query block: GET /values?readout=cytotoxicity at 10 µM&item= "Cc1csc(CNC(=O)Nc2ccc3c(c2)OCO3)n1"
Result block: -15.7

Query block: GET /values?readout=cytotoxicity at 10 µM&item= CNc1cc(N2CCCC2CNCc2csc(C(C)C)n2)ncn1 (stereo unspecified)
Result block: -14.9

Query block: GET /values?readout=cytotoxicity at 10 µM&item= "N[C@@H]1CC[C@H](C(=O)NCCn2cc(Cl)cn2)C1"
Result block: -36.4

Query block: GET /values?readout=cytotoxicity at 10 µM&item= "c1ccc2[nH]c(C3CCN(Cc4noc(C5CC5)n4)CC3)cc2c1"
Result block: 7.67

Query block: GET /values?readout=cytotoxicity at 10 µM&item= COc1ccccc1CC(C)CC(=O)NS(=O)(=O)C(C)C (stereo unspecified)
Result block: 4.56

Query block: GET /values?readout=cytotoxicity at 10 µM&item= CN(C)C1CCN(c2cc(-c3ccccc3)nc3ccnn23)C1 (stereo unspecified)
Result block: -53.5

Query block: GET /values?readout=cytotoxicity at 10 µM&item= "O=C(c1cccs1)N1CCC2(CC1)CN(c1cncnc1)C(=O)CO2"
Result block: -67.7

Query block: GET /values?readout=cytotoxicity at 10 µM&item= Cc1nc2n(n1)CC(NCc1cnn(-c3ccccc3)n1)CC2 (stereo unspecified)
Result block: -3.69

Query block: GET /values?readout=cytotoxicity at 10 µM&item= "CCOc1ccc(CNC(=O)N(C)CC(C)(C)O)cc1C"
Result block: 4.3

Query block: GET /values?readout=cytotoxicity at 10 µM&item= Cn1cc(C2CCCN2C(=O)c2cn(-c3ccccc3)nn2)cn1 (stereo unspecified)
Result block: -24

Query block: GET /values?readout=cytotoxicity at 10 µM&item= CCCn1ccc2cc(NC(=O)CC3CCCO3)ccc21 (stereo unspecified)
Result block: -3.45

Query block: GET /values?readout=cytotoxicity at 10 µM&item= "CNC(=O)Cc1ccccc1NC(=O)NCc1ccc(SC)cc1"
Result block: -1.88

Query block: GET /values?readout=cytotoxicity at 10 µM&item= "O=C(NCCNc1cc(N2CCCC2)cnn1)Nc1ccccc1F"
Result block: -0.367

Query block: GET /values?readout=cytotoxicity at 10 µM&item= Cc1nc(C)n(CC2CCCN(CCC(=O)Nc3cc(C)on3)C2)n1 (stereo unspecified)
Result block: -1.68

Query block: GET /values?readout=cytotoxicity at 10 µM&item= "CN1Cc2c(C(=O)Nc3cccnc3)ncn2-c2ccccc2S1(=O)=O"
Result block: -4

Query block: GET /values?readout=cytotoxicity at 10 µM&item= "COc1ccc(S(=O)(=O)C(F)(F)F)cc1NC(=O)CSCC#N"
Result block: -2.72

Query block: GET /values?readout=cytotoxicity at 10 µM&item= COC1CCCN(CCCc2cn[nH]c2)C1 (stereo unspecified)
Result block: 2.24

Query block: GET /values?readout=cytotoxicity at 10 µM&item= "N#Cc1ccccc1CN1CCc2sccc2C1"
Result block: -0.572

Query block: GET /values?readout=cytotoxicity at 10 µM&item= "Cc1c(NCCOCC(F)(F)F)cccc1C(=O)N1CCCC1"
Result block: -0.595

Query block: GET /values?readout=cytotoxicity at 10 µM&item= NC(=O)c1cccc(C(=O)N2CCCC(n3ccnc3)C2)c1 (stereo unspecified)
Result block: -14

Query block: GET /values?readout=cytotoxicity at 10 µM&item= "Cc1cccc(CN2CC[C@H]3OCC[C@@]3(C(=O)N3CCOCC3)C2)n1"
Result block: -1.49

Query block: GET /values?readout=cytotoxicity at 10 µM&item= Cc1cccc(C(=O)N2CCCCC2c2ccc(CN(C)C)cc2)n1 (stereo unspecified)
Result block: -19.5

Query block: GET /values?readout=cytotoxicity at 10 µM&item= "CN(Cc1noc2c1CCCC2)C(=O)Nc1cccc(S(N)(=O)=O)c1"
Result block: -4.32

Query block: GET /values?readout=cytotoxicity at 10 µM&item= CNc1cc(C)nc(C2CN(Cc3cc[nH]n3)CCO2)c1 (stereo unspecified)
Result block: -9.09

Query block: GET /values?readout=cytotoxicity at 10 µM&item= Cn1cc(N2CCC3(CCN(C(=O)[C@H]4CCCO4)C3)C2=O)cn1 (stereo partly specified)
Result block: 0.893

Query block: GET /values?readout=cytotoxicity at 10 µM&item= "CC/C=C(/C)C(=O)NS(=O)(=O)c1ccc(C#N)c(C(F)(F)F)c1"
Result block: 2.99

Query block: GET /values?readout=cytotoxicity at 10 µM&item= "COc1ccc(C(=O)COc2coc(CN3CCCCC3)cc2=O)cc1"
Result block: 5.12
